Test system: Trichophyton mentagrophytes
measurement.notes: Antifungal activity against Trichophyton mentagrophytes after 16 to 18 hrs by serial dilution method
Format: functional
condition: Trichophyton mentagrophytes
measured.parameter: MIC (µg/mL)
Only the number, expressed in µg/mL, is required.

Consider the following illustrative entries.
[[record]]
mol = "Cc1ccc(OCc2ccccc2-c2nn(CNc3ccc(Cl)cc3C(=O)C(F)(F)F)c(=S)o2)cc1"
measured_parameter = "MIC"
quantity_unit = "µg/mL"
number = 25

[[record]]
mol = "Cc1ccccc1OCc1ccccc1-c1nnc(-c2ccc(Cl)cc2)o1"
measured_parameter = "MIC"
quantity_unit = "µg/mL"
number = 25


Turning to the following compound.
// query Which measured MIC value corresponds to Cc1ccccc1OCc1ccccc1-c1nnc(SCc2ccccc2)o1 ?
// result 25

* * *

List of MIC values.
Test system: Trichophyton mentagrophytes
measurement.notes: Antifungal activity against Trichophyton mentagrophytes after 16 to 18 hrs by serial dilution method
Assay type: functional
condition: Trichophyton mentagrophytes
Only the number, expressed in µg/mL, is required.

Consider the following illustrative entries.
[[record]]
mol = "Cc1ccc(Cl)c(NCn2nc(-c3ccccc3COc3ccc(Cl)cc3)oc2=S)c1"
target_or_system = "Trichophyton mentagrophytes"
number = 25

[[record]]
mol = "CCSc1nnc(-c2ccccc2COc2ccccc2C)o1"
target_or_system = "Trichophyton mentagrophytes"
number = 25


// query Which measured MIC value corresponds to Cc1ccccc1OCc1ccccc1-c1nn(CNc2ccc(Cl)cc2C(=O)C(F)(F)F)c(=S)o1 ?
// result 25

// query Now try Cc1ccc(OCc2ccccc2-c2nnc(-c3cc(C)cc(C)c3)o2)cc1 .
// result 12.5

// query Now try Clc1ccc(OCc2ccccc2-c2nnc(SCc3ccccc3)o2)cc1 .
// result 25

* * *

System: Pseudomonas aeruginosa
measurement.notes: Antibacterial activity against Pseudomonas aeruginosa after 16 to 18 hrs by serial dilution method
Assay type: functional
condition: Pseudomonas aeruginosa
List of MIC values.

[[record]]
mol = "Cc1ccccc1OCc1ccccc1-c1nnc(SCc2ccccc2)o1"
target_or_system = "Pseudomonas aeruginosa"
measured_parameter = "MIC"
result = "25 µg/mL"


// query Which measured MIC value corresponds to Cc1ccc(Cl)c(NCn2nc(-c3ccccc3COc3ccc(Cl)cc3)oc2=S)c1 ?
// result 25 µg/mL

// query Now try Clc1ccc(OCc2ccccc2-c2nnc(SCc3ccc(Cl)cc3Cl)o2)cc1 .
// result 6.25 µg/mL

* * *

List of MIC values.
Test system: Pseudomonas aeruginosa
measurement.notes: Antibacterial activity against Pseudomonas aeruginosa after 16 to 18 hrs by serial dilution method
Type: functional
condition: Pseudomonas aeruginosa
Reply with the number and its unit after it.

[[record]]
mol = "Cc1ccccc1OCc1ccccc1-c1nnc(-c2cccc3ncccc23)o1"
measured_parameter = "MIC"
result = "25 µg/mL"

[[record]]
mol = "Fc1ccccc1-c1nnc(-c2ccccc2COc2ccc(Cl)cc2)o1"
measured_parameter = "MIC"
result = "6.25 µg/mL"


// query Which measured MIC value corresponds to CCSc1nnc(-c2ccccc2COc2cccc(C)c2)o1 ?
// result 25 µg/mL
